- Tested on: Epithelial cell
- experiment.notes: Antiproliferative activity against mouse +SA mammary epithelial cells at 15 to 40 uM after 4 days by MTT assay
- Type: functional, cell-based
Calls of active or inactive are those of the source. No cut-off for these calls is given here.
Respond only with the outcome that fits, drawn from true (1) (active), false (0) (inactive)

# input So what was the verdict on CC(=O)O[C@H]1/C=C(\C)CC/C=C(\C)[C@@H](O)C[C@@H](C(C)C)/C=C/[C@@](C)(O)C1 in this test?
# output true (1)

# input Field: outcome | Entry: C/C1=C/C(=O)C[C@](C)(O)/C=C/[C@H](C(C)C)CC/C(C)=C/CC1
# output true (1)

# input Give the logged outcome of this assay for the following molecule: CC(=O)O[C@H]1/C=C(\C)CC/C=C(\C)[C@H](O)C[C@@H](C(C)C)/C=C/[C@@](C)(O)C1
# output true (1)

# input Test call, this molecule: C/C1=C\C(=O)C[C@](C)(O)/C=C/[C@H](C(C)C)CC/C(C)=C/CC1
# output false (0)

# input Hello, I am checking results. What call was entered for CC(=O)/C=C/C(CC/C(C)=C/CC/C(C)=C/C(C)=O)C(C)C (stereo not given) [SECOCEMBRANOID] ?
# output true (1)

meta.source: ChEMBL document CHEMBL1144722
